- TARGET OF ASSAY: Short transient receptor potential channel 6 (Mus musculus)
- PROCEDURE DETAILS: TRPC6 inhibitor potency, dose response, cell-based, mouse TRPC6, HEK293, membrane potential (AID 2696)
- MEASUREMENT PARAMETERS: TRPC6-expressing HEK293 cells, membrane potential dye fluorescence, acetylcholine-stimulated
// IC50 lookup, one value per entry

1) N#CCCN(CCN1CCCC1)S(=O)(=O)c1ccc(-c2ccc([N+](=O)[O-])cc2)cc1 = 63.1 µM

Inquiry: Provide only the value of recorded IC50 for "CC(C)(C)NCc1cc(Br)ccc1OCc1cccs1"
Reply text: 70.8 µM
